- Tested on: LOX IMVI melanoma
- run description: NCI-60 one-dose screen, 48 h
- condition notes: 10 µM unless noted
The panel holds about 83,000 compounds, 20% with a hit somewhere; the sample as a whole holds those more often. Active and inactive are the calls of the source. The calls were made as follows: active = growth percent below 10; inactive = the rest.
The reply should name one outcome from active, inactive

Input line: Dear colleague, could you share the recorded outcome for `O=C(Cn1c(-c2ccccc2)nc2ccccc21)N=Nc1c(O)[nH]c2ccc(Cl)cc12` when you have a moment?
Output line: active

Input line: Another: `CCN1CCN(Cc2ccc(C(=O)Nc3cccc(Nc4ccc5c(OC)cccc5n4)c3)cc2C(F)(F)F)CC1`
Output line: active

Input line: Another: `COc1ccc(-c2cc(-c3cc(OC)c(OC)c(OC)c3)[nH]c(=O)c2C#N)cc1`
Output line: inactive

Input line: Another: `Cc1ccc(Nc2nnc(-c3c[nH]c4ccccc34)o2)c(C)c1`
Output line: active

Input line: Another: `Cc1cc(Cl)ccc1NC(=O)Nc1ccc(-c2ccc3c(c2)NC(=O)/C3=C\c2ccc[nH]2)cc1`
Output line: inactive

Input line: Another: `CN(C)c1nc(NCCNS(=O)(=O)c2ccc(C(=O)/C=C/c3ccc(C(F)(F)F)cc3)cc2)nc(N2CCOCC2)n1`
Output line: active

Input line: Another: `O=C(CSc1nnc(-c2ccc(-c3nc4ccccc4[nH]3)cc2)o1)Nc1ccc(Br)cc1`
Output line: active

Input line: Another: CC1CCc2c(sc3nc(SCC(=O)c4cccc(Br)c4)n(-c4ccccc4)c(=O)c23)C1 (configuration not stated)
Output line: inactive

Input line: Another: `COc1ccc(-c2nc3ccccc3n2CC(=O)N=Nc2c(O)[nH]c3ccc(OC)cc23)cc1`
Output line: inactive

Input line: Another: `COc1ccc(-c2nc3ccccc3n2CC(=O)N=Nc2c(O)[nH]c3ccc(Br)cc23)cc1`
Output line: inactive

Input line: Another: `NC(=Nc1ccc(OCCCCCCCCn2cnnn2)cc1)c1ccccc1`
Output line: inactive

Input line: Another: `C[C@@H]1[C@H]2C[C@@H](C[C@H]1NCc1nc3ccccc3n1C1CCCCCC1)C2(C)C`
Output line: inactive

Input line: Another: CC(Nc1ncnc2ccc(-c3ccc4oc(N)nc4c3)cc12)c1ccccc1 (configuration not stated)
Output line: active

Input line: Another: CCN(C(=O)CN1C(=O)/C(=C/c2ccco2)SC1=S)C1CCS(=O)(=O)C1 (configuration not stated)
Output line: inactive

Input line: Another: `FC(F)(F)CN1CCN(CCn2c(C(F)(F)F)cc3c(Cl)ncnc32)CC1`
Output line: active

Input line: Another: `Fc1ccc(N2CC(Cn3c(C(F)(F)F)cc4c(Cl)ncnc43)C2)c(F)c1`
Output line: active

Input line: Another: `Cc1ccc2nc(NC(=O)Nc3cccc(Cl)c3)sc2c1`
Output line: inactive

Input line: Another: `O=C1NC(=S)/C(=C/c2cn(-c3ccccc3)nc2-c2ccccc2)S1`
Output line: inactive

Input line: Another: `CC[C@@]12CC(C(=O)OC)=C3Nc4cc5c(cc4[C@@]34CCN(C[C@H]3O[C@H]31)[C@@H]24)[C@@H]1[C@H](O5)[C@@H](O)[C@@]2(CC)CC(C(=O)OC)=C3Nc4cc(O)ccc4[C@@]34CCN1[C@@H]24`
Output line: active

Input line: Another: Cc1cc(C)c2[nH]c(=O)c(C(c3nnnn3Cc3ccc4c(c3)OCO4)N3CCN(C)CC3)cc2c1 (configuration not stated)
Output line: inactive

Input line: Another: `O=C(Nc1nc2ccc([N+](=O)[O-])cc2s1)Nc1ccc(Cl)cc1Cl`
Output line: inactive

Input line: Another: `N#Cc1c(-c2ccc(F)cc2)nc(SCc2ccccc2)nc1N1CCNCC1`
Output line: active

Input line: Another: COc1ccc(NC(=O)NN2C(=O)c3ccccc3N(C)C2c2ccc(OC)cc2)cc1 (configuration not stated)
Output line: inactive

Input line: Another: `COc1cc(CNC(=O)C[C@H](C)CCC=C(C)C)ccc1OCc1cn(-c2ccc(Cl)cc2Cl)nn1`
Output line: inactive

Input line: Another: `COc1cccc(C(N)=Nc2ccc(OCCCCCCCCn3cncn3)cc2)c1`
Output line: inactive

Input line: Another: `Nc1nc(-c2ccccc2)c(N=Nc2ccc(Cl)cc2Cl)s1`
Output line: active

Input line: Another: `COc1ccc(N=Nc2c(N)nn3c(-c4ccc5c(c4)C=S=C5)ccnc23)cc1`
Output line: inactive

Input line: Another: `Cn1cc(-c2cc(N)n3nc(-c4c[nH]c5ccccc45)cc3n2)c2cc(F)ccc21`
Output line: active

Input line: Another: `Cc1ccc(-c2cc(-c3ccccc3)[nH]c(=O)c2C#N)cc1`
Output line: inactive

Input line: Another: `COc1ccc(N=Nc2c(N)nn3c(N)c(C#N)c(-c4ccccc4)nc23)cc1`
Output line: inactive

Input line: Another: `N#Cc1ccc(C(=O)NNC(=O)CSc2nc3sc4c(c3c(=O)n2-c2ccc(Cl)cc2)CCCC4)cc1`
Output line: inactive

Input line: Another: `Clc1ccc(-c2nc3c4c(-c5ccccc5)c(-c5ccccc5)n(Cc5ccccc5)c4ncn3n2)cc1`
Output line: inactive

Input line: Another: `Cn1cc(-c2cc(N)n3nc(-c4c[nH]c5ccc(Cl)cc45)cc3n2)c2cccnc21`
Output line: active

Input line: Another: `CC1=C(C)C(=O)C(N2CCSCC2)=CC1=O`
Output line: inactive

Input line: Another: Cc1cc(C2(c3cc(C)c(OCC(O)CNc4c(C)n(C)n(-c5ccccc5)c4=O)cc3C(C)C)OC(=O)c3ccccc32)c(C(C)C)cc1OCC(O)CNc1c(C)n(C)n(-c2ccccc2)c1=O (configuration not stated)
Output line: inactive

Input line: Another: `CN1CCN(CCS(=O)(=O)Nc2cc(-c3ccc4ncnc(Nc5ccc(F)c(Cl)c5)c4c3)cnc2Cl)CC1`
Output line: active

Input line: Another: `CC(C)(C)OC(=O)N1CCC2(CC1)Oc1ccccc1[C@H]1CC(c3ccc(Br)cc3)=NN12`
Output line: inactive

* * *

- System: TK-10 renal
- run description: NCI-60 one-dose screen, 48 h (100 = growth as untreated, 0 = no growth, -100 = all killed)
- condition notes: 10 µM unless noted
Compounds without any hit were thinned out: in the full panel of roughly 83,000, 20% have a hit.
assay endpoint: growth (%)
// return numeric value only (unit: %, not printed)

Input line: What value of growth has been reported for the following compound? `Cn1cc(-c2cc(N)n3nc(-c4c[nH]c5ccccc45)cc3n2)c2ccccc21`
Output line: -93.4

Input line: Another: `N/C(=N\c1nc2ccccc2s1)NC(=O)Nc1ccccc1F`
Output line: 38.4

Input line: Another: `COc1ccc(N=Nc2c(N)nn3c(-c4ccc(F)cc4)ccnc23)cc1`
Output line: 106

Input line: Another: CC(Nc1ncnc2ccc(-c3ccc4oc(N)nc4c3)cc12)c1ccccc1 (stereo not given)
Output line: -41.4

Input line: Another: `COc1c(B(O)O)cccc1-c1nc2ccc3cn[nH]c3c2c2c1CCCC2`
Output line: 12

Input line: Another: COc1ccc(SC2c3cc(OC)ccc3Oc3nc(N)c(C#N)c(N)c32)cc1 (stereo not given)
Output line: 110

Input line: Another: COc1cc(C2CC(c3cc(OC)c(OC)c(OC)c3)=Nc3c(N)nc(N)nc3N2)ccc1Oc1nc(Nc2ccc(F)cc2)nc(N(C)C)n1 (stereo not given)
Output line: 99.8

Input line: Another: `COc1ccc(N=Nc2c(N)nn3c(N)c(C#N)c(-c4ccccc4)nc23)cc1`
Output line: 57.4

Input line: Another: `COc1ccc(-c2cc(C(=O)Oc3ccc(C=O)cc3OC)nn2-c2ccc(S(C)(=O)=O)cc2)cc1`
Output line: 147

Input line: Another: `COc1ccc2[nH]c(O)c(N=NC(=O)c3ccc4nc(-c5ccc(Cl)cc5)[nH]c4c3)c2c1`
Output line: 111

Input line: Another: `CCCN(CCC)S(=O)(=O)c1ccc(C(=O)O)cc1.CCCN(CCC)S(=O)(=O)c1ccc(C(=O)O)cc1.[Cl][Pt+2][Cl].[NH2-].[NH2-]`
Output line: 109

Input line: Another: `Cn1cc(-c2cc3nc(-c4cn(C)c5ncc(Br)cc45)cc(N)n3n2)c2cc(F)ccc21`
Output line: 16

Input line: Another: `CS(=O)(=O)Nc1cncc(-c2ccc3ncnc(NCc4ccccc4)c3c2)c1`
Output line: 63

Input line: Another: `COc1ccc2nc(NC(=O)c3ccc(N(C)C)cc3)sc2c1`
Output line: 115

Input line: Another: `Cc1ccc(-c2cc(-c3ccccc3)[nH]c(=O)c2C#N)cc1`
Output line: 95.1

Input line: Another: `Cc1cnc2ccc(Oc3ccccc3-c3ccccc3)nn12`
Output line: 106

Input line: Another: `O=C(N/N=C/c1c[nH]c2ccccc12)Nc1ccccc1Cl`
Output line: 34.2

Input line: Another: `O=C1Nc2ccccc2/C1=C\c1ccc(OCC(=O)c2ccc(Br)cc2)cc1`
Output line: 94.9

Input line: Another: CCOC(=O)/C(F)=C/C1CC1C(c1ccccc1)c1ccccc1 (stereo not given)
Output line: 101

Input line: Another: CCN1C(=O)N(CC)C2NNC(Sc3c(C(=O)O)c4ccccc4n(CCC(C)C)c3=O)=NC21 (stereo not given)
Output line: 62.1
